Reported values of %Inh for individual entries
system: FGR; settings: concentration: 1 μM,replicates: in singlicate; n = 1;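 note: KINOMEscan kinase panel screen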
recorded.metric: %Inh (%)

[[record]]
compound = "c1ccc(Oc2ccc(Nc3ccnc4ccc(-c5ccccn5)cc34)cc2)cc1"
experimental_value = 69

[[record]]
compound = "COc1cccc(CNC(=O)NC2CCN(c3ccnc(Nc4cc(OC)c(OC)c(OC)c4)n3)C2)c1 (stereo not drawn)"
experimental_value = 18

[[record]]
compound = "Cc1ccc2c(-c3ccnc(Nc4ccc(C(F)(F)F)cc4)n3)cnn2n1"
experimental_value = 4


* * *

tested on: WNK3; conditions: concentration: 1 μM,replicates: in singlicate; n = 1
recorded.metric: %Inh (%)

[[record]]
compound = "Cn1cc(-c2cccc3c(N)c(C(N)=O)nnc23)cn1"
experimental_value = 0

[[record]]
compound = "CC(=O)Nc1nc2cnc(Nc3cc(NC(=O)c4cccc(CC(C)(C)C#N)c4)ccc3C)nc2s1"
experimental_value = 0

[[record]]
compound = "Cc1ccc(Nc2ccnc(Nc3ccc4c(c3)CS(=O)(=O)C4)n2)cc1O.Cl [GW579362]"
experimental_value = 33

[[record]]
compound = "CCN1CCN(CCCC(=O)Nc2n[nH]c3nc(-c4ccc(O)cc4)c(Br)cc23)CC1 [SB-731579]"
experimental_value = 0

[[record]]
compound = "CN1CCN(CCNc2nc3cc(Oc4ccc(NC(=O)Nc5cc(C(F)(F)F)ccc5F)cc4)ccc3[nH]2)CC1.Cl.Cl [GW768504]"
experimental_value = 0

[[record]]
compound = "O=C(Nc1cccc(Oc2ccc3nccn3n2)c1)Nc1cccc(C(F)(F)F)c1"
experimental_value = 0

[[record]]
compound = "COc1cccc(CNC(=O)NC2CCN(c3ccnc(Nc4cc(OC)c(OC)c(OC)c4)n3)C2)c1 (stereo not shown) [GSK1379765]"
experimental_value = 34

[[record]]
compound = "CCOC(=O)N1CCC(n2cnc(-c3ccc(F)cc3)c2-c2ccnc(N)n2)CC1 [SB-219952]"
experimental_value = 45

[[record]]
compound = "CCn1c(-c2nonc2N)nc2cncc(CNC3CCNCC3)c21.Cl [SB-747651]"
experimental_value = 34

[[record]]
compound = "CS(=O)(=O)Nc1ccc(-c2ccnc3[nH]ccc23)cc1 [GSK993273]"
experimental_value = 9

[[record]]
compound = "O=c1[nH]cc(-c2ccc(O)cc2)c2sc(-c3ccncc3)cc12 [GSK1033723]"
experimental_value = 18

[[record]]
compound = "CNC(=O)c1ccccc1Nc1nc(Nc2cccc(CS(C)(=O)=O)c2)ncc1C.O=CO [GSK1520489]"
experimental_value = 65

[[record]]
compound = "CN(c1ccc2c(c1)nc(NCc1ccc(F)cc1)n2C)c1ccnc(Nc2ccc(CS(C)(=O)=O)cc2)n1.Cl [GW813244]"
experimental_value = 13

[[record]]
compound = "OCCn1cc(-c2cnc3nnn(Cc4ccc5ncccc5c4)c3n2)cn1"
experimental_value = 0

[[record]]
compound = "O=C(NCC1CC1)c1ccc(-c2cc(C(=O)NC3CC3)ccc2F)cc1 [GW810445]"
experimental_value = 11

[[record]]
compound = "Cn1ccc2ncnc(Oc3ccc(NC(=O)Nc4cncc(C(F)(F)F)c4)c(Cl)c3)c21"
experimental_value = 0

[[record]]
compound = "COc1ccc(Nc2nccc(N3CCC(NC(=O)c4cccc(C#N)c4)C3)n2)cc1 (stereo not shown) [GSK1379730]"
experimental_value = 18

[[record]]
compound = "Cc1nnc(-c2ccc3occ(-c4ccc(S(C)=O)cc4)c3n2)o1 (stereo not shown)"
experimental_value = 0

[[record]]
compound = "NC(=O)Nc1sc(-c2ccc(F)cc2)cc1C(N)=O [GW789449]"
experimental_value = 2

[[record]]
compound = "COc1cccc(C2=C(Nc3cccc(Cl)c3)C(=O)NC2=O)c1 [SB-341556]"
experimental_value = 19

[[record]]
compound = "O=C(Nc1n[nH]c2cc(-c3ccco3)ccc12)C1CC1 [SB-737447]"
experimental_value = 0

[[record]]
compound = "CCNCC(Cc1ccccc1)NC(=O)c1cc(Br)c(-c2ccnc3[nH]ccc23)s1.Cl.Cl (stereo not shown) [GSK1383280]"
experimental_value = 9

[[record]]
compound = "CC(C(=O)NC1CCN(c2ccnc(Nc3ccc(F)cc3)n2)C1)c1ccc(Cl)cc1 (stereo not shown) [GSK1379713]"
experimental_value = 73

[[record]]
compound = "Cc1n[nH]c2cc(Nc3ccnc(Nc4cccc(CN5CCOCC5)c4)n3)ccc12 [GW682569]"
experimental_value = 21

[[record]]
compound = "Cc1cccc(-c2nc(Nc3ccncc3)c3sccc3n2)n1 [GW869641]"
experimental_value = 21


These data points were gathered from paper PMC5540273.
